# Assayed system: UBE2K; note: test concentration or dose not given here
# Assay summary: reporter assay of Huesken 2005
# Test context: siRNA
Oligonucleotides are given in HELM: sugar(base)linkage, 5' to 3'; d 2'-deoxyribose, r ribose, m 2'-O-methylribose, p phosphate. ss, as = sense and antisense strand
Test readout: normalised inhibition (eCFP-eYFP dual reporter) (%)

RNA1{r(C)p.r(C)p.r(U)p.r(C)p.r(C)p.r(A)p.r(G)p.r(A)p.r(C)p.r(A)p.r(C)p.r(A)p.r(C)p.r(C)p.r(A)p.r(U)p.r(A)p.r(U)p.r(G)p.d(T)p.d(T)}|RNA2{r(C)p.r(A)p.r(U)p.r(A)p.r(U)p.r(G)p.r(G)p.r(U)p.r(G)p.r(U)p.r(G)p.r(U)p.r(C)p.r(U)p.r(G)p.r(G)p.r(A)p.r(G)p.r(G)p.d(T)p.d(C)}$$$RNA1{StrandType:ss}|RNA2{StrandType:as}$    66.9
RNA1{r(G)p.r(U)p.r(A)p.r(G)p.r(U)p.r(A)p.r(G)p.r(C)p.r(A)p.r(A)p.r(A)p.r(U)p.r(C)p.r(A)p.r(G)p.r(U)p.r(A)p.r(C)p.r(A)p.d(T)p.d(T)}|RNA2{r(U)p.r(G)p.r(U)p.r(A)p.r(C)p.r(U)p.r(G)p.r(A)p.r(U)p.r(U)p.r(U)p.r(G)p.r(C)p.r(U)p.r(A)p.r(C)p.r(U)p.r(A)p.r(C)p.d(A)p.d(G)}$$$RNA1{StrandType:ss}|RNA2{StrandType:as}$    92.1
RNA1{r(G)p.r(A)p.r(C)p.r(A)p.r(C)p.r(A)p.r(C)p.r(C)p.r(A)p.r(U)p.r(A)p.r(U)p.r(G)p.r(A)p.r(A)p.r(G)p.r(G)p.r(A)p.r(G)p.d(T)p.d(T)}|RNA2{r(C)p.r(U)p.r(C)p.r(C)p.r(U)p.r(U)p.r(C)p.r(A)p.r(U)p.r(A)p.r(U)p.r(G)p.r(G)p.r(U)p.r(G)p.r(U)p.r(G)p.r(U)p.r(C)p.d(T)p.d(G)}$$$RNA1{StrandType:ss}|RNA2{StrandType:as}$    64.2
